system-name: OCTR-1 (Caenorhabditis elegans, UniProt Q7JP62)
Construct: cDNA in KSM vector, cRNA injected into Xenopus laevis oocytes; co-expressed with mouse GIRK1/GIRK2 as reporter
Sequence (Q7JP62 1-406): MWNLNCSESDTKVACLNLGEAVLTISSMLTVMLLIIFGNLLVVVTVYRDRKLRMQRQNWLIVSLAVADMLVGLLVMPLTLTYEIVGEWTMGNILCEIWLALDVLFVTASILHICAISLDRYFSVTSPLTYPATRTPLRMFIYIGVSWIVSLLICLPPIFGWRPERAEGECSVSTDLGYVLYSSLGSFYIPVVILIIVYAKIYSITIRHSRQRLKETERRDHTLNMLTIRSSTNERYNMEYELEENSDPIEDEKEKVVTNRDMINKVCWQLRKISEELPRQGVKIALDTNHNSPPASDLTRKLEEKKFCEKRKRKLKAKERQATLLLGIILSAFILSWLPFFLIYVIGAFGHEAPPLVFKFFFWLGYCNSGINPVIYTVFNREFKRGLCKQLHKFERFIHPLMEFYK
method: two-electrode voltage clamp, GIRK1/[…] current, Xenopus oocytes
Let's look at some compounds and their measured pEC50.
pEC50 is defined as minus the log10 of a concentration measured in mol/L.

{"columns": ["compound-structure", "pEC50"],
 "data": [
  ["NC[C@H](O)c1ccc(O)cc1", 6.94]
]}

Consider now this further compound.
Query block: Form field: reported pEC50 of `NCCc1ccc(O)cc1`
Result block: 4.89

The measurements presented in this section are drawn from paper PMC7758879.
